All values here come from patent US5620676A.

- subject.of.test: P2Y receptor (turkey erythrocyte membranes) (Meleagris gallopavo, UniProt P49652)
- Construct: from tissue; host or cells: washed turkey erythrocytes, ghosts prepared by hypotonic lysis
- Sequence (P49652 whole entry): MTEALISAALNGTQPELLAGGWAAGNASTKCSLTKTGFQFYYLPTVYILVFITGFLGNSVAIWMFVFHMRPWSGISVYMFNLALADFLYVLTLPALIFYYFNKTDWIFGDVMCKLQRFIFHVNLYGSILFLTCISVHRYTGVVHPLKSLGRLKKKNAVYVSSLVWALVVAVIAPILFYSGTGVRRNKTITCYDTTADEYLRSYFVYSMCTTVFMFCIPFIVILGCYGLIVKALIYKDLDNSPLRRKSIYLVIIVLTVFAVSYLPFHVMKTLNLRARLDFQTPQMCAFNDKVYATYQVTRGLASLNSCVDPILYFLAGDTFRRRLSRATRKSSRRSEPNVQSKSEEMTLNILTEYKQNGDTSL
- measurement.description: Stimulation of phospholipase C (inositol phosphate formation) in turkey erythrocyte membranes
- Assay type: biochemical
- condition.info: turkey erythrocyte membranes; mean ± S.E.M. for at least 2 determinations; read-out: phosphatidyl inositol metabolism (K0.5, nM) erythrocyte
Record form. Attribute: log10(EC50). Fill in for each entry.
Scale: log10; quantity: EC50; unit before log: nM

Nc1ncnc2c1ncn2[C@@H]1O[C@H](COP(=O)(O)OP(=O)(O)OP(=O)(O)O)[C@@H](O)[C@H]1O [ATP, adenosine-5'-triphosphate, reference compound] ... 3.45
C=CCCCCSc1nc(N)c2ncn([C@@H]3O[C@H](COP(=O)(O)OP(=O)(O)O)[C@@H](O)[C@H]3O)c2n1 [2-(5-Hexenyl)thio-ADP] ... 0.83
CCCCCCCSc1nc(N)c2ncn([C@@H]3O[C@H](COP(=O)(O)O)[C@@H](O)[C@H]3O)c2n1 [2-hepylthio AMP] ... 3.00
Nc1ncnc2c1ncn2[C@@H]1O[C@H](COP(=O)(O)OP(=O)(O)OP(=O)(O)O)C[C@H]1O [3'-Deoxy-ATP, 3'-deoxy-ATP, reference compound] ... 4.88
Nc1nc(Cl)nc2c1ncn2[C@@H]1O[C@H](COP(=O)(O)OP(=O)(O)OP(=O)(O)O)[C@@H](O)[C@H]1O [2-Cl-ATP, 2-chloro-ATP, reference compound] ... 1.86

Please give log10(EC50) for each item listed below.
1. Nc1ncnc2c1ncn2[C@H]1CC[C@@H](COP(=O)(O)OP(=O)(O)OP(=O)(O)O)O1 [2',3'-Dideoxy-ATP, 2',3'-dideoxy-ATP, reference compound]
2. Nc1nc(SCCc2ccc([N+](=O)[O-])cc2)nc2c1ncn2[C@@H]1O[C@H](COP(=O)(O)OP(=O)(O)OP(=O)(O)O)[C@@H](O)[C@H]1O [2-(2-p-Nitrophenylethyl)-thio-ATP]
3. N#CCCCCCCSc1nc(N)c2ncn([C@@H]3O[C@H](COP(=O)(O)OP(=O)(O)OP(=O)(O)O)[C@@H](O)[C@H]3O)c2n1 [2-(6-Cyanohexylthio)-ATP]

4.85
1.08
1.00
